# Test system: RAW 264.7 cells
# Experiment Notes: Quantitative cell-permeability of FITC-labeled aMTD- or rPeptide-fused CRA recombinant proteins (flow cytometry)
# Type: cell-based
# Protocol Conditions: cell-permeability of aMTD-fused CRA recombinant protein relative to reference CPP (B: MTM12)
Measure Name: Relative Ratio (Fold) B
I'd appreciate it if you wrote the number followed by its unit.

Below is a list of substances. For each, state its recorded Relative Ratio (Fold) B.
1. 743 (AIAIALVPVALP; Amino acid Sequence of aMTD743) [compound 743]
2. 464 (AVVILVPLAAAP; Amino acid Sequence of aMTD464) [compound 464]
3. 844 (VVALLAPLIAAP; Amino acid Sequence of aMTD844) [compound 844]

Result:
["4.9 Fold", "14.9 Fold", "7.5 Fold"]
